- Test system: TAB109
- methodNotes: qHTS profiling for inhibitors of Plasmodium falciparum proliferation (AID 504749); note: nearly all actives have a fitted effect of over 60% in size
- conditionSummary: P. falciparum in erythrocytes, SYBR Green DNA, 72 h; series mostly up to 28.7 µM
Records with an inconclusive call do not appear. Active and inactive are the calls of the source. Calls come from the whole dose curve; as a rule, active = well fitted inhibition curve with a large enough effect; inconclusive = small, poorly fitted or top-dose-only effect; inactive = flat fitted curve, though single readings scatter.
Returns: one label drawn from active, inactive

Consider the worked cases shown below.
INSERT INTO results (compound, assaysystem, classassignment) VALUES
  ('Nc1nc(N)c2nc(CNc3ccc(C(=O)NC(CCC(=O)O)C(=O)O)cc3)cnc2n1 (configuration not stated)', 'TAB109', 'inactive'),
  ('CC(C)NCC(O)c1ccc(NS(C)(=O)=O)cc1 (configuration not stated)', 'TAB109', 'inactive'),
  ('COc1cc([C@@H]2c3cc4c(cc3[C@H](O)[C@H]3COC(=O)[C@H]23)OCO4)cc(OC)c1OC', 'TAB109', 'active');

Query: recorded result category for NC(=O)c1cccnc1 in this test inactive

Query: recorded result category for CNC1CCCN(c2c(F)cc3c(=O)c(C(=O)O)cn(C4CC4)c3c2OC)C1 (configuration not stated) in this test inactive

Query: recorded result category for COc1ncnc(NS(=O)(=O)c2ccc(N)cc2)c1OC in this test inactive

Query: recorded result category for CN(C)c1ccc(C(=C2C=CC(=[N+](C)C)C=C2)c2ccc(N(C)C)cc2)cc1 in this test active

Query: recorded result category for Cc1cccc(N(C)C(=S)Oc2ccc3ccccc3c2)c1 in this test inactive

Query: recorded result category for COc1ccc(C(=O)CC(=O)c2ccc(C(C)(C)C)cc2)cc1 in this test inactive

Query: recorded result category for COc1cccc(N(C)C(=S)Oc2ccc3c(c2)CCCC3)n1 in this test inactive

Query: recorded result category for Nc1ccc(S(=O)(=O)Nc2ccccn2)cc1 in this test inactive

Query: recorded result category for O=S(=O)(O)CCS in this test inactive

* * *

- Test system: CP238
- methodNotes: qHTS profiling for inhibitors of Plasmodium falciparum proliferation (AID 504749); note: nearly all actives have a fitted effect of over 60% in size
- conditionSummary: P. falciparum in erythrocytes, SYBR Green DNA, 72 h; series mostly up to 28.7 µM
Results filed as inconclusive are left out. Calls of active or inactive are those of the source. Calls come from the whole dose curve; as a rule, active = well fitted inhibition curve with a large enough effect; inconclusive = small, poorly fitted or top-dose-only effect; inactive = flat fitted curve, though single readings scatter.
Returns: one label drawn from YES (active), NO (inactive)

Consider the worked cases shown below.
INSERT INTO results (compound, classassignment) VALUES
  ('COc1cnc(NS(=O)(=O)c2ccc(N)cc2)nc1', 'NO'),
  ('Nc1[nH]c(=O)ncc1F', 'NO');

Query: recorded result category for CC1=CC(=O)c2ccccc2C1=O in this test NO

Query: recorded result category for C#CCN[C@@H]1CCc2ccccc21 in this test NO

Query: recorded result category for N[C@@H](C(=O)N[C@@H]1C(=O)N2C(C(=O)O)=C(Cl)CS[C@H]12)c1ccccc1 in this test NO

Query: recorded result category for CN(C)c1ccc(C(=C2C=CC(=[N+](C)C)C=C2)c2ccc(N(C)C)cc2)cc1 in this test YES

Query: recorded result category for CCC(C)(C)c1ccc(CC(C)CN2C[C@@H](C)O[C@@H](C)C2)cc1 (stereo not given in full) in this test NO

Query: recorded result category for CCN(C)C(=O)Oc1cccc([C@H](C)N(C)C)c1 in this test NO

Query: recorded result category for COc1cc2c(Nc3ccc(Br)cc3F)ncnc2cc1OCC1CCN(C)CC1 in this test YES

Query: recorded result category for O=NN(CCCl)C(=O)NC1CCCCC1 in this test NO

Query: recorded result category for CN1CCCC(n2nc(Cc3ccc(Cl)cc3)c3ccccc3c2=O)CC1 (stereo not given) in this test NO

Query: recorded result category for CCOc1cc(N)c(Cl)cc1C(=O)NCC1CN(Cc2ccc(F)cc2)CCO1 (stereo not given) in this test YES

Query: recorded result category for CC[C@H](C)C(=O)O[C@H]1C[C@@H](C)C=C2C=C[C@H](C)[C@H](CC[C@@H]3C[C@@H](O)CC(=O)O3)[C@H]21 in this test NO

Query: recorded result category for CNS(=O)(=O)Cc1ccc2[nH]cc(CCN(C)C)c2c1 in this test NO

Query: recorded result category for COc1c(N2CCNC(C)C2)c(F)cc2c(=O)c(C(=O)O)cn(C3CC3)c12 (stereo not given) in this test NO

Query: recorded result category for CCOC(=O)[C@H](CCc1ccccc1)N[C@H]1CS[C@H](c2cccs2)CN(CC(=O)O)C1=O in this test NO

Query: recorded result category for CCCc1cc(C(N)=S)ccn1 in this test NO

Query: recorded result category for C[C@]12C=CC(=O)C=C1CC[C@@H]1[C@@H]2C(=O)C[C@@]2(C)[C@H]1CC[C@]2(O)C(=O)CO in this test NO

Query: recorded result category for CC[C@H](NC(C)C)[C@H](O)c1ccc(O)c2[nH]c(=O)ccc12 in this test NO

Query: recorded result category for Cc1cccc(Nc2ccncc2S(=O)(=O)NC(=O)NC(C)C)c1 in this test NO

* * *

- methodNotes: qHTS profiling of the MIPE4 collection as inhibitors of Plasmodium falciparum (DD2) proliferation (Rep 2) (AID 743346)
- conditionSummary: P. falciparum Dd2 in erythrocytes, SYBR Green DNA, 72 h; at 28.5 µM (top of the series) unless noted
reportedMetric: parasite growth, % of control (lower = inhibition) (%)
One number for each entry, in %.

Consider the following illustrative entries.
INSERT INTO results (compound, obsvalue) VALUES
  ('CCOC(=O)c1ccc(OC(=O)CCCCCN=C(N)N)cc1', 118),
  ('Cc1ccc(S(=O)(=O)N[C@@H](Cc2ccccc2)C(=O)CCl)cc1', 79.2),
  ('Cc1noc(NS(=O)(=O)c2ccc(N)cc2)c1C', 103),
  ('NC(=O)c1ccc2[nH]ccc2c1', 122),
  ('CCC(C)(C)c1ccc(CC(C)CN2C[C@@H](C)O[C@@H](C)C2)cc1 (some centres undefined)', 39),
  ('CCCCOc1ccc(CC(=O)NO)cc1', 16.4);

Please go through the list and note parasite growth, % of control (lower = inhibition) for each compound.
1. NC(N)=NC(N)=NCCc1ccccc1
2. N[C@@H](Cc1ccc(O)c(O)c1)C(=O)O
3. O=C(O)c1ccc(-n2nc(-c3ccccc3O)nc2-c2ccccc2O)cc1
4. CNC1CCCN(c2c(F)cc3c(=O)c(C(=O)O)cn(C4CC4)c3c2OC)C1 (centres undefined)
5. O=P(O)(O)C(O)(Cc1cccnc1)P(=O)(O)O
6. CCCCS(=N)(=O)CCC(N)C(=O)O (centres undefined)
7. COc1ccccc1OCC(O)COC(N)=O (centres undefined)

[47, 64.9, 34.2, 8.93, 80.5, 193, 142]

* * *

- Tested on: DIV30
- methodNotes: qHTS profiling for inhibitors of Plasmodium falciparum proliferation (AID 504749); note: nearly all actives have a fitted effect of over 60% in size
- conditionSummary: P. falciparum in erythrocytes, SYBR Green DNA, 72 h; series mostly up to 28.7 µM
Records with an inconclusive call do not appear. Active and inactive are the calls of the source. Calls come from the whole dose curve; as a rule, active = well fitted inhibition curve with a large enough effect; inconclusive = small, poorly fitted or top-dose-only effect; inactive = flat fitted curve, though single readings scatter.
Returns: one label drawn from Yes = active, No = inactive

Consider the worked cases shown below.
INSERT INTO results (compound, classassignment) VALUES
  ('CN(CCOc1ccc(CC2SC(=O)NC2=O)cc1)c1ccccn1 (stereo unspecified)', 'No'),
  ('CNCC[C@H](Oc1cccc2ccccc12)c1cccs1', 'Yes'),
  ('N[C@@H](Cc1ccc(O)c(O)c1)C(=O)O', 'No');

Query: recorded result category for CN(C)c1ccc(C(=C2C=CC(=[N+](C)C)C=C2)c2ccc(N(C)C)cc2)cc1 in this test Yes

Query: recorded result category for Nc1nc(N)c2nc(CNc3ccc(C(=O)NC(CCC(=O)O)C(=O)O)cc3)cnc2n1 (stereo unspecified) in this test No

Query: recorded result category for CCn1cc(C(=O)O)c(=O)c2cc(F)c(N3CCNCC3)cc21 in this test No

Query: recorded result category for CCc1c2c(nc3ccc(OC(=O)N4CCC(N5CCCCC5)CC4)cc13)-c1cc3c(c(=O)n1C2)COC(=O)[C@]3(O)CC in this test No

Query: recorded result category for COc1cc([C@@H]2c3cc4c(cc3[C@H](O)[C@H]3COC(=O)[C@H]23)OCO4)cc(OC)c1OC in this test Yes

Query: recorded result category for OC(Cn1cncn1)(Cn1cncn1)c1ccc(F)cc1F in this test No

Query: recorded result category for CCn1cc(C(=O)O)c(=O)c2cc(F)c(N3CCNCC3)nc21 in this test No

Query: recorded result category for Cc1ncc([N+](=O)[O-])n1CCO in this test No

Query: recorded result category for N=C(N)c1ccc(OCCCCCOc2ccc(C(=N)N)cc2)cc1 in this test Yes

Query: recorded result category for CNC(=O)c1cc(Oc2ccc(NC(=O)Nc3ccc(Cl)c(C(F)(F)F)c3)cc2)ccn1 in this test Yes

Query: recorded result category for Cn1nnc2c(C(N)=O)ncn2c1=O in this test No

Query: recorded result category for CN(Cc1cc(Br)cc(Br)c1N)C1CCCCC1 in this test No

Query: recorded result category for CN1CCN(c2c(F)cc3c(=O)c(C(=O)O)cn4c3c2OCN4C)CC1 in this test No

Query: recorded result category for CC(C)(Sc1cc(C(C)(C)C)c(O)c(C(C)(C)C)c1)Sc1cc(C(C)(C)C)c(O)c(C(C)(C)C)c1 in this test No

Query: recorded result category for CCN(C)C(=O)Oc1cccc([C@H](C)N(C)C)c1 in this test No

Query: recorded result category for CC[C@H](C)C(=O)O[C@H]1C[C@@H](C)C=C2C=C[C@H](C)[C@H](CC[C@@H]3C[C@@H](O)CC(=O)O3)[C@H]21 in this test No

Query: recorded result category for CCOC(=O)[C@H](CCc1ccccc1)N[C@H]1CS[C@H](c2cccs2)CN(CC(=O)O)C1=O in this test No

Query: recorded result category for CN1CCCC(n2nc(Cc3ccc(Cl)cc3)c3ccccc3c2=O)CC1 (stereo unspecified) in this test No
